# assay details: In vivo pharmacokinetics in SD rats
# test parameters: male, SD, iv; rat plasma, tail vein injection, 2 mg/kg
readout name: AUC (ng·h/mL)
Respond with the bare value in ng·h/mL.

Inquiry: Give the measured AUC for COc1ncc(-c2ccc3nccc(-c4ccc(CN(C)C)cc4)c3c2)cc1NS(=O)(=O)c1ccc(F)cc1F
Reply text: 3740

----------
# assay details: In vivo pharmacokinetics in SD rats
# test parameters: male, SD, po; rat plasma, intragastric administration, 20 mg/kg; read-out: AUC(0-24)
readout name: AUC(0-t)
Param answer (str): number followed by unit.

Inquiry: Please give measured AUC(0-t) of the following entry: COc1ncc(-c2ccc3nccc(-c4ccc(CN(C)C)cc4)c3c2)cc1NS(=O)(=O)c1ccc(F)cc1F
Reply text: 34100 ng·h/mL

----------
A collection of compounds and their measured melting point

O=S(=O)(Nc1cc(-c2ccc3nccc(-c4ccc(Cn5cncn5)cc4)c3c2)cnc1Cl)c1ccc(F)cc1F [Compound 35]
145 to 148 °C
COc1ncc(-c2ccc3nccc(-c4ccc(CN5CCOCC5)cc4)c3c2)cc1NS(=O)(=O)c1ccc(F)cc1F [Compound 13]
97 to 99 °C
COc1ncc(-c2ccc3nccc(-c4ccc(CN(C)C)cc4)c3c2)cc1NS(=O)(=O)c1ccc(F)cc1 [Compound 31]
150 to 152 °C
COc1ncc(-c2ccc3nccc(-c4ccc(Cn5cncn5)cc4)c3c2)cc1NS(=O)(=O)c1ccc(F)cc1F [Compound 10]
121 to 123 °C

Inquiry: Determine its reported melting point: COc1ncc(-c2ccc3nccc(-c4ccc(CN(C)CCN(C)C)cc4)c3c2)cc1NS(=O)(=O)c1ccc(F)cc1F [Compound 24]
Reply text: 87 to 88 °C

Inquiry: Please give measured melting point of the following entry: COc1ncc(-c2ccc3nccc(-c4ccc(C(=O)N5CCCC5)cc4)c3c2)cc1NS(=O)(=O)c1ccc(F)cc1F [Compound 11]
Reply text: 115 to 117 °C

Inquiry: Input COc1ncc(-c2ccc3nccc(-c4ccc(CN5CCCC5)cc4)c3c2)cc1NS(=O)(=O)c1ccc(F)cc1F [Compound 12] , output reported melting point.
Reply text: 129 to 130 °C

----------
# assay details: In vivo pharmacokinetics in SD rats
# test parameters: male, SD, iv; rat plasma, tail vein injection, 2 mg/kg
readout name: Vd

Inquiry: Provide measured Vd value, entry: COc1ncc(-c2ccc3nccc(-c4ccc(CN(C)C)cc4)c3c2)cc1NS(=O)(=O)c1ccc(F)cc1F [Compound 9]
Reply text: 5.05 L/kg

----------
# assay details: In vivo pharmacokinetics in SD rats
# test parameters: male, SD, rat, plasma, oral, 20 mg/kg, rats, intragastric 20 mg/kg vs iv 2 mg/kg; read-out: Absolute bioavailability F0-∞
readout name: bioavailability (%)
Provide the reading as a plain figure in %.

Inquiry: Specify reported bioavailability for the compound shown: COc1ncc(-c2ccc3nccc(-c4ccc(CN(C)C)cc4)c3c2)cc1NS(=O)(=O)c1ccc(F)cc1F
Reply text: 95.2

----------
# assay details: In vivo pharmacokinetics in SD rats
# test parameters: male, SD, po; rat plasma, intragastric administration, 20 mg/kg
readout name: MRT (h)
Answer format: numeric, h implied, no suffix.

Inquiry: Fill in reported MRT for this entry: COc1ncc(-c2ccc3nccc(-c4ccc(CN(C)C)cc4)c3c2)cc1NS(=O)(=O)c1ccc(F)cc1F
Reply text: 6.46
